The following binders are shown together with reported ECL signal values.
# tested.target: T1, Recombinant Human DLL4 (delta-like protein 4) (human, UniProt Q9NR61 27-524)
# T1 construct: Bought recombinant protein (R&D Systems Cat#1506-D4/CF); also called rHuman DLL4; Delta-like 4
# test.method.notes: ECL (Meso Scale Discovery) binding assay on immobilised recombinant human DLL4; Fab concentration not given

| binder | ECL signal |
| --- | --- |
| Fab VH5-51_IGHD5-18*01>3_IGHJ4*01 G100K/G104T (H:KT) & V3-4_IGLJ1*01 T78V (Fab, V domains shown, Fab with CH1 and lambda CL from the expression plasmids; also called G100K/G104T & T78V) VH: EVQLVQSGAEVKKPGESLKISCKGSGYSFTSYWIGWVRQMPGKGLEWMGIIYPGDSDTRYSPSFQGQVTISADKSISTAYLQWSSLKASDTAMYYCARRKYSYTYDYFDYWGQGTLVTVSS VL: QTVVTQEPSFSVSPGGTVTLTCGLSSGSVSTSYYPSWYQQTPGQAPRTLIYSTNTRSSGVPDRFSGSILGNKAALTIVGAQADDESDYYCVLYMGSGISYVFGTGTKVTVL | 9830 |
| Fab VH5-51_IGHD5-18*01>3_IGHJ4*01 G100K/G104T (H:KT) & V3-4_IGLJ1*01 T78S (Fab, V domains shown, Fab with CH1 and lambda CL from the expression plasmids; also called G100K/G104T & T78S) VH: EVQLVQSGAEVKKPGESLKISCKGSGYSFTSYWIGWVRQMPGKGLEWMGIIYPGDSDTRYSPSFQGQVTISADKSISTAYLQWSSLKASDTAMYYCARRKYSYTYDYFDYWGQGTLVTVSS VL: QTVVTQEPSFSVSPGGTVTLTCGLSSGSVSTSYYPSWYQQTPGQAPRTLIYSTNTRSSGVPDRFSGSILGNKAALTISGAQADDESDYYCVLYMGSGISYVFGTGTKVTVL | 7550 |
| Fab VH5-51_IGHD5-18*01>3_IGHJ4*01 G100K/G104T (H:KT) & V3-4_IGLJ1*01 T78K (Fab, V domains shown, Fab with CH1 and lambda CL from the expression plasmids; also called G100K/G104T & T78K) VH: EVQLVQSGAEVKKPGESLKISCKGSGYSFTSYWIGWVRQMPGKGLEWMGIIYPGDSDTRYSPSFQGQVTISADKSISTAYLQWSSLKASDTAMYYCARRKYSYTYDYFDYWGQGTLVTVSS VL: QTVVTQEPSFSVSPGGTVTLTCGLSSGSVSTSYYPSWYQQTPGQAPRTLIYSTNTRSSGVPDRFSGSILGNKAALTIKGAQADDESDYYCVLYMGSGISYVFGTGTKVTVL | 9620 |
